Reference source: the supplement of paper PMC10266784

B1: library; numbered along this chain (parent)
chain: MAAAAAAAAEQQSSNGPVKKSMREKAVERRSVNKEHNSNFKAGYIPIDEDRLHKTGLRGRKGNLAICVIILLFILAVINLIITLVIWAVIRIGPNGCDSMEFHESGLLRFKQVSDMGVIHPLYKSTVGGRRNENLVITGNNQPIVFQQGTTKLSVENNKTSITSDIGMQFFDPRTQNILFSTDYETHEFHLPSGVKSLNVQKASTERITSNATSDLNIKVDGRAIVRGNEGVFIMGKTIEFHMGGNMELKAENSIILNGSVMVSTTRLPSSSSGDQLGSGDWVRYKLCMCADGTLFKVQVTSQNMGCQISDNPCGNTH

- Variants of: B1
- protocol description: SGCB cell-surface expression functional score (HA stain, bin4 vs bin1, normalised to synonymous) (log10 ratio); higher = more cell-surface SGCB (functional)
Binning rule for recorded SGCB cell-surface expression functional score (log10): lower band = under -0.1, central band = from -0.1 up to 0.08, upper band = 0.08 and over

| mutations | assigned category |
| --- | --- |
| K159A | central band |
| I178D | lower band |
| K237W | upper band |
| K297F | lower band |
| S264R | central band |
| S264G | upper band |
| G167H | lower band |
| Q12H | central band |
| G16I | central band |
| S193F | upper band |
| A88F | upper band |
| H53D | lower band |
| G16F | upper band |
| I255S | central band |
| I239Y | lower band |
| Y44V | upper band |
| K297Y | lower band |
